Test system: HepG2
Assay: cytotoxicity call (relative viability < 0.9)
Settings: 10 µM
About 3,300 (8.5%) of roughly 39,000 compounds were called active. For the sample, actives were picked, then their nearest neighbours and some compounds at random.
Classes used: active, inactive

>>> label("C[C@H](CO)N1C[C@H](C)[C@H](CN(C)S(=O)(=O)c2ccc(F)cc2)Oc2c(NS(=O)(=O)c3ccccc3)cccc2C1=O")
"inactive"
>>> label("Cc1ccc(S(=O)(=O)N(C)C[C@@H]2OCCCC[C@H](C)Oc3ccc(NC(=O)CCC(F)(F)F)cc3C(=O)N([C@@H](C)CO)C[C@@H]2C)cc1")
"active"
>>> label("COc1ccc([C@@H]2CC=CC[C@@H](C)Oc3ccccc3C(=O)N(C)[C@H](Cc3ccccc3)C(=O)N2)c(OC)c1")
"inactive"
>>> label("CC[C@@H]1OC(=O)C[C@@H](O)[C@H](C)[C@@H](O[C@@H]2O[C@H](C)[C@@H](O)[C@H](N(C)C)[C@H]2O)[C@@H](CCN2C[C@H](C)C[C@H](C)C2)C[C@@H](C)C(=O)/C=C/C(C)=C\\[C@@H]1CO[C@@H]1O[C@H](C)[C@@H](O)[C@@H](OC)[C@H]1OC")
"inactive"
>>> label("C[C@@H]1CCCCO[C@H](CN(C)Cc2ccccc2)[C@@H](C)CN([C@H](C)CO)C(=O)c2cc(NC(=O)Cc3ccccc3)ccc2O1")
"inactive"
>>> label("CCC1OC(=O)CC(O)C(C)C(OC2OC(C)C(O)C(N(C)C)C2O)C(CCN2CC(C)CC(C)C2)CC(C)C(=O)C=CC(C)=CC1COC1OC(C)C(O)C(OC)C1OC (stereo not given)")
"active"
>>> label("COc1cc2c(cc1OC)-c1onc(-c3ccc(OCCO[Si](C(C)C)(C(C)C)C(C)C)cc3)c1CCCN(C[C@@H](C)OC(=O)NCCCCCC(=O)NO)CC2")
"active"
>>> label("C[C@H]1CN([C@@H](C)CO)S(=O)(=O)c2ccc(C#CC3CCCC3)cc2O[C@@H]1CN(C)C(=O)Cc1ccncc1")
"inactive"
>>> label("CNC[C@H]1Oc2c(NS(=O)(=O)c3cn(C)cn3)cccc2C(=O)N([C@@H](C)CO)C[C@@H]1C")
"inactive"
>>> label("C[C@H]1CN([C@@H](C)CO)C(=O)Cc2cc(NC(=O)CCN3CCOCC3)ccc2O[C@@H]1CN(C)S(=O)(=O)c1ccc(Cl)cc1")
"inactive"

----------
Tested on: HepG2
Experiment: cytotoxicity call (relative viability < 0.9)
Details: 10 µM
About 3,300 (8.5%) of roughly 39,000 compounds were called active. What follows is part of a selection rich in actives, with near analogues and random picks from the rest.
Classes used: active, inactive

>>> label("NNS(=O)(=O)c1ccc(Oc2ccc(S(=O)(=O)NN)cc2)cc1")
"active"
>>> label("C[C@H](CO)N1C[C@H](C)[C@@H](CN(C)C(=O)Nc2ccc(C(F)(F)F)cc2)Oc2ncc(/C=C/c3ccccc3)cc2C1=O")
"inactive"
>>> label("C[C@H]1CCCCO[C@@H](CN(C)S(=O)(=O)c2ccccc2)[C@@H](C)CN([C@@H](C)CO)C(=O)c2cc(NC(=O)NC3CCCCC3)ccc2O1")
"inactive"
>>> label("C[C@H](CO)N1C[C@H](C)[C@@H](CN(C)C(=O)CN2CCOCC2)Oc2ncc(C3=CCCCC3)cc2C1=O")
"inactive"
>>> label("CCCCCCCCCCCCCCCC(=O)OC[C@@H](NC(=O)C(Cl)Cl)[C@H](O)c1ccc([N+](=O)[O-])cc1")
"inactive"
>>> label("Cc1ccc(S(=O)(=O)N(C)C[C@H]2Oc3ccc(NC(=O)NC(C)C)cc3CC(=O)N([C@@H](C)CO)C[C@H]2C)cc1")
"inactive"
>>> label("Cc1ccc(S(=O)(=O)N(C)C[C@H]2OCCCC[C@@H](C)Oc3ccc(NC(=O)NC4CCCCC4)cc3C(=O)N([C@H](C)CO)C[C@H]2C)cc1")
"active"
